Hello, the source for this data is patent US20150183791A1, in case you need it.

Below: a set of entries, each annotated with reported IC50.
Molecular target: AAK1 (full-length human protein) (Homo sapiens)
Sequence (Q2M2I8 1-863 isoform Q2M2I8-2): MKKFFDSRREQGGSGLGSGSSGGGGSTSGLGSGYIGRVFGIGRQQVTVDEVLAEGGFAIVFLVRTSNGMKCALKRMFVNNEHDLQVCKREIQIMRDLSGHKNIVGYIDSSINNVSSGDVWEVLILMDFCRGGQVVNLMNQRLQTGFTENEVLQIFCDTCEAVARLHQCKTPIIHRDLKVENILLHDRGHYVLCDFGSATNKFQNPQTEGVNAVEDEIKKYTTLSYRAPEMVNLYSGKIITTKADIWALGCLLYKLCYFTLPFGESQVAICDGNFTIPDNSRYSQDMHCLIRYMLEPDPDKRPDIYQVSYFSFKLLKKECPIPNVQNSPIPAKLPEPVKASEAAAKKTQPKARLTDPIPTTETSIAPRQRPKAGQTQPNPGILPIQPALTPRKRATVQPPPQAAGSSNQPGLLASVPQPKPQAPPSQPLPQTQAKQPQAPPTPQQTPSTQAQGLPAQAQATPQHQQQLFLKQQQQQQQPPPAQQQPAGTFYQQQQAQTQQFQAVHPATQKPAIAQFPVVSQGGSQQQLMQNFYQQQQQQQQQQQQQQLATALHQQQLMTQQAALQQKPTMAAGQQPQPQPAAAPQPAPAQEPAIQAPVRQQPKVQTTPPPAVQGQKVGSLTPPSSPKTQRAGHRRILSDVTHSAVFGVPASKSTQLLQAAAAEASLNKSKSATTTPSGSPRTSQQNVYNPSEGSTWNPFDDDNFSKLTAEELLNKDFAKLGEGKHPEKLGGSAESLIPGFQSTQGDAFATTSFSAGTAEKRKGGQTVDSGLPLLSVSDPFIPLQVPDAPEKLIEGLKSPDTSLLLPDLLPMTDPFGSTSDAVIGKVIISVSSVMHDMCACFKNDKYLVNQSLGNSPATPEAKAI
Assay: P81 filter plate assay
Assay type: biochemical
Conditions: 0.2 nM-scale full-length human AAK1, Mu2 substrate, 33P-ATP, one hour at room temperature; class symbols

Recorded results for 4 compounds are shown here.
>  <smiles string>
CC(C)C[C@H](N)Cn1ccc(-c2ccc3ncc(Cl)n3n2)cc1=O

>  <IC50>
0.1 to 1 µM

$$$$
>  <smiles string>
CCOc1ncccc1-c1cnc2ccc(-c3ccn(CCC(C)C)c(=O)c3)nn12

>  <IC50>
≤ 0.01 µM

$$$$
>  <smiles string>
CC(C)CCn1ccc(-c2ccc3ncc(Br)n3n2)cc1=O

>  <IC50>
≤ 0.01 µM

$$$$
>  <smiles string>
COc1ncc(F)cc1-c1cnc2ccc(-c3ccn(CCC(C)C)c(=O)c3)nn12

>  <IC50>
≤ 0.01 µM

$$$$

Attention now turns to another entry.
Data point: "COc1ncccc1-c1cnc2ccc(-c3ccn(C[C@@H](N)CC(C)C)c(=O)c3)nn12" ; IC50 = 0.01 to 0.1 µM
